I'd be grateful if you could share measured Ki for these entries.
biological target: Glutamyl aminopeptidase (Oryctolagus cuniculus); assay: Inhibition of aminopeptidase A (APA)

get_value(item= NC(CS)Cc1ccc(CC(=O)O)cc1 (stereo not given) , readout=Ki) returns 2200 nM

// field: Ki; key: NC(CS)Cc1cccc(C(=O)O)c1 (stereo not given) ; value = 840 nM

GET /value?item= NC(CS)CC1CCCC(C(=O)O)C1 (stereo not given) &field=Ki returns > 3000 nM

Noted for NC(CS)CC1CCC(C(=O)O)CC1 (stereo not given) : its Ki reads 1900 nM

Ki reported for this molecule NC(CS)c1ccc(C(=O)O)cc1 (stereo not given) : > 3000 nM

Measured Ki, NC(CS)Cc1ccc(C(=O)O)cc1 (stereo not given) : 2700 nM

For reference, reported Ki for NC(CS)c1cccc(C(=O)O)c1 (stereo not given) stands at 2400 nM

Ki measured on NC(CS)CC1CCC(CC(=O)O)CC1 (stereo not given) = 2800 nM

Looking up N[C@H](CCS)CCC(=O)O [(S)-4-Amino-6-mercapto-hexanoic acid] , I found its Ki recorded as 2000 nM

Memo: N[C@@H](CS)CCC(=O)O [(R)-4-Amino-5-mercapto-pentanoic acid] , reported Ki: 2300 nM

Provenance of the data: BindingDB's records for doi:10.1021/jm00035a014
